Molecular target: Tyrosine-protein kinase HCK (Homo sapiens, UniProt P08631)
Sequence (P08631 whole entry): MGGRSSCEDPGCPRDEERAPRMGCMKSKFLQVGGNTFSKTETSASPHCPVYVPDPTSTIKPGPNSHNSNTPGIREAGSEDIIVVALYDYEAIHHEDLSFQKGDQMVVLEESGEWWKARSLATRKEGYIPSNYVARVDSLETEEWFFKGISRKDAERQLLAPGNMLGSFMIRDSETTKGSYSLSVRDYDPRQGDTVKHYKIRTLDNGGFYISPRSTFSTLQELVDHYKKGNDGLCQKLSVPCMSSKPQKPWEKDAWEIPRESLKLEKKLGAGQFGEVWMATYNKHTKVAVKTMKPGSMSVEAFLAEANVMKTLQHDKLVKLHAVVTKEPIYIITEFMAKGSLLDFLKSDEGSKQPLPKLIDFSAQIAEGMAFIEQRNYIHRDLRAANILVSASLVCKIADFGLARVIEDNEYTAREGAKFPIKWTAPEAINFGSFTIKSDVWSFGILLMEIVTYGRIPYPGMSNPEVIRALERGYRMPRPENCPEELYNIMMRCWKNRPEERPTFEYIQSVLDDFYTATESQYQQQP
Assay: Inhibition of human recombinant Hck
measureName: pIC50
Note on units: pIC50 is unitless, being -log10 of a concentration expressed in mol/L.

# query: pIC50 of entry Cc1cc2cn[nH]c2cc1-c1cccc2c(N)c(C(N)=O)nnc12
7.00

###

Test: Hepatic extraction ratio in Sprague-Dawley rat at 1 mg/kg, iv
Format: ADME, organism-based
Conditions: in vivo, read-out: ERH
measureName: hepatic extraction ratio
Answer with the value's number alone.

# query: hepatic extraction ratio of entry Cn1cc(-c2cccc3c(N)c(C(N)=O)nnc23)cn1
0.3

###

Test: Half life in beagle dog at 1 mg/kg, iv and 10 mg/kg, po
Assay type: ADME, organism-based, Canis lupus familiaris
Conditions: in vivo
measureName: half-life
Returns: string containing the number followed by the unit.

# query: half-life of entry Cc1cc2cn[nH]c2cc1-c1cccc2c(N)c(C(N)=O)nnc12
4.1 h
